Origin of the recorded values: patent US20240034815A1

target: T1, His-tagged human GPC3 (human, UniProt P51654 25-559, limits assumed); test: binding assay not named for this figure; human GPC3 per legend paragraph 61
T1 construct: Captured on HIS1K sensors in the Octet assay; also called human GPC3 antigen; Glypican 3; not shown: His tag
T1 sequence (P51654 25-559 limits assumed): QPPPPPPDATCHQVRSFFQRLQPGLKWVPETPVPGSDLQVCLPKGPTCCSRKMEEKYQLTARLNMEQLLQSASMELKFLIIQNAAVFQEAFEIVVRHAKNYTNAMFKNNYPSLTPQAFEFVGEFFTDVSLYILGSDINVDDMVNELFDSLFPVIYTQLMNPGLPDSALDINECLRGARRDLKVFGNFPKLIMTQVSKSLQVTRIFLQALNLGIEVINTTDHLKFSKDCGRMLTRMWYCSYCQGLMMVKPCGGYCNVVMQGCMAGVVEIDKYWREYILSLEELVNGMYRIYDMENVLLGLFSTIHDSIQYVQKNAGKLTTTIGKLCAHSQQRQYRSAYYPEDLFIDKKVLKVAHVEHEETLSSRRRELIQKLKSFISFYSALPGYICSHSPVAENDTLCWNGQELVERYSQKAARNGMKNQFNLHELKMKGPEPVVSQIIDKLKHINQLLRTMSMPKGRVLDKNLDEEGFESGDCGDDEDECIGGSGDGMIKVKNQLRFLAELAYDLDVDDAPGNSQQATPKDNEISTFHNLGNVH
# label = yes if Kd < 4 nM else no

Please indicate whether the reported Kd of XENP 23068 H1_L1.5 (antibody, human IgG1, kappa, V domains shown, VH WT, VL mutation (Kabat) G29A; also called [GPC3]H1_L1.5; VL G29A; copies: 2 + 2) VH: QVQLVQSGAEVKKPGASVKVSCKASGYTFTDYEMHWVRQAPGQGLEWMGALDPKTGDTAYSQKFQGRVTMTADKSISTAYMELSRLRSDDTAVYYCTRFYSYTYWGQGTLVTVSS VL: DVVMTQSPLSLPVTLGQPASISCRSSQSLVHSNANTYLHWYQQRPGQSPRLLIYKVSNRFSGVPDRFSGSGSGTDFTLKISRVEAEDVGVYFCSQNTHVPPTFGSGTKLEIKR is strictly below 4 nM. yes

Please indicate whether the reported Kd of XENP 23065 H1_L1.2 (antibody, human IgG1, kappa, V domains shown, VH WT, VL mutation (Kabat) N28Y; also called [GPC3]H1_L1.2; VL N28Y; copies: 2 + 2) VH: QVQLVQSGAEVKKPGASVKVSCKASGYTFTDYEMHWVRQAPGQGLEWMGALDPKTGDTAYSQKFQGRVTMTADKSISTAYMELSRLRSDDTAVYYCTRFYSYTYWGQGTLVTVSS VL: DVVMTQSPLSLPVTLGQPASISCRSSQSLVHSYGNTYLHWYQQRPGQSPRLLIYKVSNRFSGVPDRFSGSGSGTDFTLKISRVEAEDVGVYFCSQNTHVPPTFGSGTKLEIKR is strictly below 4 nM. no

Please indicate whether the reported Kd of XENP 23071 H1_L1.8 (antibody, human IgG1, kappa, V domains shown, VH WT, VL mutation (Kabat) N30Q; also called [GPC3]H1_L1.8; VL N30Q; copies: 2 + 2) VH: QVQLVQSGAEVKKPGASVKVSCKASGYTFTDYEMHWVRQAPGQGLEWMGALDPKTGDTAYSQKFQGRVTMTADKSISTAYMELSRLRSDDTAVYYCTRFYSYTYWGQGTLVTVSS VL: DVVMTQSPLSLPVTLGQPASISCRSSQSLVHSNGQTYLHWYQQRPGQSPRLLIYKVSNRFSGVPDRFSGSGSGTDFTLKISRVEAEDVGVYFCSQNTHVPPTFGSGTKLEIKR is strictly below 4 nM. yes

Please indicate whether the reported Kd of XENP 23063 H1.4_L1 (antibody, human IgG1, kappa, V domains shown, VH mutation (Kabat) D52S, VL WT; also called [GPC3]H1.4_L1; VH D52S; copies: 2 + 2) VH: QVQLVQSGAEVKKPGASVKVSCKASGYTFTDYEMHWVRQAPGQGLEWMGALSPKTGDTAYSQKFQGRVTMTADKSISTAYMELSRLRSDDTAVYYCTRFYSYTYWGQGTLVTVSS VL: DVVMTQSPLSLPVTLGQPASISCRSSQSLVHSNGNTYLHWYQQRPGQSPRLLIYKVSNRFSGVPDRFSGSGSGTDFTLKISRVEAEDVGVYFCSQNTHVPPTFGSGTKLEIKR is strictly below 4 nM. yes
